Where do these numbers come from? They come from patent US7968570B2.

# Assay System: human mGluR2 receptor (Homo sapiens, UniProt Q14416)
# Construct: expressed in transfected cells
# Sequence (Q14416 19-872): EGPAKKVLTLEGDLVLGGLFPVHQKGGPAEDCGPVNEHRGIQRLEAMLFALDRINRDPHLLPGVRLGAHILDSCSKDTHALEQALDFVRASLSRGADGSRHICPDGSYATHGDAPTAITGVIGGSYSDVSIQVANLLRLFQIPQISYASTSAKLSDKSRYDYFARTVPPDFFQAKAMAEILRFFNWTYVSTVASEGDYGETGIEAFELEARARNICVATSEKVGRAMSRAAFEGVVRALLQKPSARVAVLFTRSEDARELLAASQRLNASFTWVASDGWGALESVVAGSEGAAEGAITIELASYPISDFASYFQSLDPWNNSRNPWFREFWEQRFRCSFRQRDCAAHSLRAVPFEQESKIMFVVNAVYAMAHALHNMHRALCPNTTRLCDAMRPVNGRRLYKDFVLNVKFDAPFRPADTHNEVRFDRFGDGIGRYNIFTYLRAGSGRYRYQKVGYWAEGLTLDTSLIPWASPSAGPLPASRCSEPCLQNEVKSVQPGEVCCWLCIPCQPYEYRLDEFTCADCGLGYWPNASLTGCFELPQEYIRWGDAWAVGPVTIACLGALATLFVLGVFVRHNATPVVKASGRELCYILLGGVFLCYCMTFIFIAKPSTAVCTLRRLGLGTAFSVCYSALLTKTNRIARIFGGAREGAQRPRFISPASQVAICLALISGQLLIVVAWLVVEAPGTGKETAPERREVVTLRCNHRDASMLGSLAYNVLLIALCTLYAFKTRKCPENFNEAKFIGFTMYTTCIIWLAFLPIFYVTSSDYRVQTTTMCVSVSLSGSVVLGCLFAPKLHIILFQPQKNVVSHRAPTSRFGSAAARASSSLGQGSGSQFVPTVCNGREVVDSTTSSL
# Measurement Notes: [35S]-GTPγS binding assay of mGluR2 receptor activation
# Format: biochemical
# Condition Summary: membranes from CHO cells stably expressing human mGluR2; 1 μM glutamate
The following compounds are shown together with reported pEC50 values.
pEC50 field: float, defined as -log10 of concentration (mol/L).

Guide cases for pEC50, answers given:
O=C1c2ccc(N3CCC(CCCc4ccccc4)CC3)cc2CN1Cc1ccc(OC(F)(F)F)cc1 [Example 152] | 6.29
O=C(CN1CCN(c2ccc3c(c2)CN(Cc2ccc(OC(F)(F)F)cc2)C3=O)CC1)N1CCCC1 [Example 148] | 5.17
Cc1cc(N2CCN(C)CC2)cc2c1C(=O)N(Cc1ccc(Cl)cc1)C2 [Example 117] | 5.84

Reported pEC50 ( Cc1cc(N2CCC(N(C)C)C2)cc2c1C(=O)N(Cc1ccc(Cl)cc1)C2 (centres unmarked) [Example 119] ) = 6.38

Reported pEC50 ( Cc1cc(CN2CCC(CCCc3ccccc3)CC2)cc2c1C(=O)N(Cc1ccc(OC(F)(F)F)cc1)C2 [Example 54] ) = 7.00

Reported pEC50 ( CCN1CCN(c2cc3c(c(OC)c2)C(=O)N(Cc2ccc(OC(F)(F)F)cc2)C3)CC1 [Example 127] ) = 5.33

Reported pEC50 ( Cc1cc(OCc2ccccn2)cc2c1C(=O)N(Cc1ccc(OC(F)(F)F)cc1)C2 [Example 82] ) = 7.00

Reported pEC50 ( Cc1cc(-c2cccnc2)cc2c1C(=O)N(Cc1ccc(Cl)cc1)C2 [Example 98] ) = 7.00
